System: Salmonella enterica serovar Typhimurium SL1344
Assay: normalized growth (OD600, IQM-normalized) in LPM (fraction of plate interquartile mean); higher = more bacterial growth (less inhibition)
Conditions: LPM pH 5.8; 10 µM; 16 h
Whole data set: some 1,600 compounds, median “normalized growth (OD600, IQM-normalized) in LPM” near 1, cut for the lowest 2% near 0.014. The list comes from a sample in which the lowest values are over-represented; it also holds close analogues and randomly drawn compounds.
Listing of recorded normalized growth by entry.

Here is how some compounds turned out for normalized growth.
compound: CCCCC(CC)COC(=O)C(C#N)=C(c1ccccc1)c1ccccc1 (stereo not given)
measured-result: 0.82

compound: CCC/C=C\C=C/C(=O)N[C@@H](CC(N)=O)C(=O)NC(CC(N)=O)C(=O)N[C@@H](C(=O)N[C@H](CCCN)C(=O)N[C@@H](C(=O)N[C@@H](C(=O)N[C@@H](C(=O)N[C@H](C(=O)N[C@@H](Cc1ccccc1)C(=O)N[C@H](CCCN)C(=O)NC(C(=O)N[C@H](C(=O)NC(C(=O)NCC(=O)N[C@@H](CC(C)C)C(=O)N[C@H](C)C(=O)NC(C(=O)O)C1CCC(O)C(Cl)C1)C1CCC(O)CC1)[C@H](C)O)C1CCC(O)CC1)[C@H](C)O)C1CCC(O)CC1)C1CCC(O)CC1)[C@H](C)O)C1CCC(O)CC1 (stereo not given in full) [RAMOPLANIN [A2 shown; 2mM]]
measured-result: 1.31

compound: CN(C)c1ccc(O)c2c1C[C@H]1C[C@H]3[C@H](N(C)C)C(O)=C(C(N)=O)C(=O)[C@@]3(O)C(O)=C1C2=O
measured-result: 0.0111

compound: O=C1c2cccc(O)c2C(=O)c2c(O)cccc21
measured-result: 0.827

Tell me normalized growth reported for CC(=O)Nc1c(I)cc(I)c(C(=O)O)c1I
0.949

Tell me normalized growth reported for CC(S)C(=O)NCC(=O)O (stereo not given)
0.982
